Let's look at some molecules and their measured pKi.
Target desc: α2β3γ2 GABAA/BzR (Homo sapiens, UniProt P18507+P47869)
Method: Competition binding to HEK cell membranes, α2β3γ2
Set-up: expressed in transfected cells
Measurement setup: read-out: Ki α2
Reminder that pKi means the negative base-10 logarithm of the concentration expressed in mol/L.

Solved entries (count: 10):
Molecule	pKi
CN1CCN(C=C2N=C3CN=C(c4ccccc4)c4cc(Br)ccc4N3C2=O)CC1 [PS-1-35]	7.80
COc1ccc2c(c1)C(=O)N1CC[C@H]1c1c(C(=O)OC(C)(C)C)ncn1-2 [CM-D45]	7.18
Fc1ccc2c(c1)[nH]c1c2ncc2[nH]c3ccccc3c21 [MLT-II-16]	7.98
CCCC(=O)c1cc2c(cn1)[nH]c1ccc(F)cc12 [CM-A57]	7.57
O=C1CN=C(c2ccccc2Cl)c2cc(Br)ccc2N1 [DM-II-72]	8.86
CCOC(=O)c1cc2c(cn1)[nH]c1ccc(I)cc12 [CM-B01]	7.51
CC(C)(C)OC(=O)c1cc2c(cn1)[nH]c1ccc(-c3ccco3)cc12 [WYS13]	7.89
CC(C)(C)OC(=O)c1cc2c(cn1)[nH]c1ccc(C(C)(C)C)cc12 [CM-A82a]	8.05
CCOC(=O)c1ncn2c1CN=C(c1ccccc1F)c1cc(-c3ccco3)ccc1-2 [JYI-48]	7.04
C#Cc1ccc2c(c1)C(=O)N(C)Cc1c(C(=O)OC(C)(C)C)ncn1-2 [RY-024]	7.58

Query :: Name the recorded pKi of the item CCC(OC(=O)c1ncn2c1C1CCCN1C(=O)c1cc(F)ccc1-2)C(F)(F)F (mixture of isomers) [CM-B47] in your answer.
Result :: 7.20

Query :: Name the recorded pKi of the item Cc1nnc2n1-c1ccc(C#C[Si](C)(C)C)cc1C(c1ccccc1F)=NC2 [JYI-72] in your answer.
Result :: 7.73

Query :: Name the recorded pKi of the item CCc1c(C(=O)OC)ncc2[nH]c3cc(OC)c(OC)cc3c12 [DMCM, reference compound] in your answer.
Result :: 8.08

Query :: Name the recorded pKi of the item C[Si](C)(C)C#Cc1ccc2c(c1)C(=O)N1CCC[C@H]1c1c(C(=O)OCC(F)(F)F)ncn1-2 [JYI-11] in your answer.
Result :: 5.30

Query :: Name the recorded pKi of the item Cc1nnc2n1-c1ccc(Br)cc1C(c1ccccc1Cl)=NC2 [DM-II-90 (C17H12N4BrCl)] in your answer.
Result :: 9.00

Query :: Name the recorded pKi of the item CC(C)(C)OC(=O)c1cc2c(cn1)[nH]c1ccc(F)cc12 [CM-A87] in your answer.
Result :: 8.34

Query :: Name the recorded pKi of the item Oc1ccc2c(c1)[nH]c1c2ncc2[nH]c3ccccc3c21 [MLT-II-34] in your answer.
Result :: 7.80

Query :: Name the recorded pKi of the item O=C(OCC(F)(F)F)c1ncn2c1CN=C(c1ccccc1)c1ccccc1-2 [DM-II-30] in your answer.
Result :: 7.87

Query :: Name the recorded pKi of the item CC(C)(C)OC(=O)c1cc2c(cn1)[nH]c1ccccc12 [SH-TSC-2] in your answer.
Result :: 10.38
